- Test system: spores of ATCC 630 strain
- assay-explanation: Inhibition of germination of C. difficile spores (MIC), strain ATCC 630
- Format: cell-based
- condition-details: Clostridioides difficile, ATCC630, 1 h; strain 630; sodium taurocholate as germinant, BHIS medium, 37° C., OD580 for 60 min; read-out: MIC (minimum concentration that completely inhibits spore germination)
result-type: MIC (µM)
Report only the number, with the unit µM understood.

Query: # value lookup — system spores of ATCC 630 strain, readout MIC, item CC(C)[C@@H](NC(=O)C[C@@H](C)[C@H]1CC[C@H]2[C@@H]3[C@H](OP(=O)(O)O)C[C@@H]4CC(=O)CC[C@]4(C)[C@H]3CC[C@]12C)c1ccc(Br)s1 [Compound I-194]
Result: 64

Query: # repeat for CC[C@@H](NC(=O)C[C@@H](C)[C@H]1CC[C@H]2[C@@H]3[C@H](O)CC4=CC(=O)CC[C@]4(C)[C@H]3CC[C@]12C)c1ccc(Br)s1 [Compound I-155-2]
Result: 0.25

Query: Now this one: CCC(NC(=O)C[C@@H](C)[C@H]1CC[C@H]2[C@@H]3[C@H](O)[C@H](O)[C@@H]4C[C@H](O)CC[C@]4(C)[C@H]3CC[C@]12C)c1cccs1 (stereo partly drawn) [Compound I-116]
Result: 16
